- Experimental System: Kv1.3 potassium channel (Homo sapiens, UniProt P22001)
- Construct: expressed in transfected cells
- Sequence (P22001 whole entry): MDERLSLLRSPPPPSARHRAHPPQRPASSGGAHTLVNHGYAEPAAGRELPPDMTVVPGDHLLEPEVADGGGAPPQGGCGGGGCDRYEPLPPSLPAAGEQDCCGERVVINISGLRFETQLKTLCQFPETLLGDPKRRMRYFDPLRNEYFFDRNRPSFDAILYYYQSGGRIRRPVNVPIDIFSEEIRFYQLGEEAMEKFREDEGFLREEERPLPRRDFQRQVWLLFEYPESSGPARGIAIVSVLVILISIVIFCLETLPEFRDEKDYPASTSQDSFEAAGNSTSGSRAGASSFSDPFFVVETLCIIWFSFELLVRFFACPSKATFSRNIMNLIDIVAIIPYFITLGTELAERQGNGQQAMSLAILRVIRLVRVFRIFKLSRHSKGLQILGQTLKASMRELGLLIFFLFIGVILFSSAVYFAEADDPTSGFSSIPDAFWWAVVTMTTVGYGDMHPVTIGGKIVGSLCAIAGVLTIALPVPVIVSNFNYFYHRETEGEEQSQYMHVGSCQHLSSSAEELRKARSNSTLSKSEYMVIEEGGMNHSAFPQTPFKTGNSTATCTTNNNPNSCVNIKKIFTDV
- Method Summary: Kv1.3 potassium channel blocker activity, automated whole-cell patch clamp (Patchliner) in CHO-K1 cells stably expressing Kv1.3
- Assay type: cell-based
- Settings: CHO-K1 cells stably expressing Kv1.3; patch clamp, current inhibition; read-out: Kv1.3 IC50
pIC50: −log10 of the molar value.
Some compounds, each annotated with its measured pIC50.

[[record]]
compound = "O=C(C[C@H]1C[C@@H](c2c(O)ccc(Cl)c2Cl)CCN1)N1CCOCC1 (relative stereo) [Compound 113]"
reported = "> 6.00"

[[record]]
compound = "O=S(=O)(NC[C@H]1C[C@@H](c2c(O)ccc(Cl)c2Cl)CCN1)C1CC1 (relative stereo) [Compound 97]"
reported = "> 6.00"

[[record]]
compound = "Cn1cc(NC(=O)C[C@H]2C[C@@H](c3c(O)ccc(Cl)c3Cl)CCN2)cn1 (relative stereo) [Compound 114]"
reported = "> 6.00"

[[record]]
compound = "NC(=O)C[C@H]1C[C@@H](c2c(O)ccc(Cl)c2Cl)CCN1 (relative stereo) [Compound 108]"
reported = "> 6.00"

[[record]]
compound = "CC(=O)NC[C@H]1C[C@@H](c2c(O)ccc(Cl)c2Cl)CCN1 (single isomer, unassigned) [Compound 86]"
reported = "> 6.00"


Now look at this one.
Q: Report pIC50, nothing else, for this compound: O=C([C@H](O)CO)N1CCC(c2c(O)ccc(Cl)c2Cl)CC1 [Compound 2]
Ans: > 6.00

---

- Experimental System: UniProt Q12809
- Sequence (Q12809 whole entry): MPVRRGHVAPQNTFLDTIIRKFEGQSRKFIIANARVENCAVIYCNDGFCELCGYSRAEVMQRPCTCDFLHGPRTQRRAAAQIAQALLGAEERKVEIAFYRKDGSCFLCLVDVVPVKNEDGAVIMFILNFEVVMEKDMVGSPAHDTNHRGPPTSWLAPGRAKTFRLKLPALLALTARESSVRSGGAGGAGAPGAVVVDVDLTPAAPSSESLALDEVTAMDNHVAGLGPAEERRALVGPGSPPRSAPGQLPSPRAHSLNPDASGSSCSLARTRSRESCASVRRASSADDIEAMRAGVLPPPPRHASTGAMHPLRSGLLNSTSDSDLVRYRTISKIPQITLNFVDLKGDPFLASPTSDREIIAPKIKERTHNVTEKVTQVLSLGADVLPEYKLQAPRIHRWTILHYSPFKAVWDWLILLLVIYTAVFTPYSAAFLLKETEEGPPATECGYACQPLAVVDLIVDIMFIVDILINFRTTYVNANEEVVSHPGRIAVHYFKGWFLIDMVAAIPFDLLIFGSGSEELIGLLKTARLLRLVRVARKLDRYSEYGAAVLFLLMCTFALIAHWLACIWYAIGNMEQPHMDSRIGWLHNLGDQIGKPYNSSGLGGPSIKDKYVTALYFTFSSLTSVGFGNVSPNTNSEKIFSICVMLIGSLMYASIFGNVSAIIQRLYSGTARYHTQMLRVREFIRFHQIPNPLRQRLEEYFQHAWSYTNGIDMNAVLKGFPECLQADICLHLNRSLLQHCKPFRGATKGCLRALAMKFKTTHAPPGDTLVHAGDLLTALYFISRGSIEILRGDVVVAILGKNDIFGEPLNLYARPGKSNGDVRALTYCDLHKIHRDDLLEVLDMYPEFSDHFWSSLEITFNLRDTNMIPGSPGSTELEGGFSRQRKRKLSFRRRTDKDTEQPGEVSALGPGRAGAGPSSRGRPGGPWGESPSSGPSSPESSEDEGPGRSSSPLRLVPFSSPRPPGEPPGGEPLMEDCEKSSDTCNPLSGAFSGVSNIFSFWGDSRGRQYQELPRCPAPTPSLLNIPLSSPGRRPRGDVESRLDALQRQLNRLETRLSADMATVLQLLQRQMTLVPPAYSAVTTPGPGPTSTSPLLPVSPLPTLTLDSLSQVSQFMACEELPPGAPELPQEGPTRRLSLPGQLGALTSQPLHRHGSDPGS
- Method Summary: hERG electrophysiology, automated whole-cell patch clamp (Patchliner) in CHO-K1 cells stably expressing hERG
Some molecules, each annotated with its measured IC50.

Known results for molecules:
[[record]]
molecule = "CNC(=O)C[C@H]1C[C@@H](c2c(O)ccc(Cl)c2Cl)CCN1 (relative stereo) [Compound 115]"
parameter_measured = "IC50"
reported = "> 30 µM"

[[record]]
molecule = "CN(C)C1CCN(c2cc(Cl)c(Cl)cc2O)CC1"
parameter_measured = "IC50"
reported = "< 30 µM"


Q: Report IC50, nothing else, for this molecule: CC(=O)NC[C@H]1C[C@@H](c2c(O)ccc(Cl)c2Cl)CCN1 (single isomer, unassigned)
Ans: > 30 µM

---

Some compounds, each annotated with its measured pIC50.
- Experimental System: Kv1.3 potassium channel (Homo sapiens)
- Construct: expressed in transfected cells
- Method Summary: Kv1.3 potassium channel blocker activity, automated whole-cell patch clamp (Patchliner) in CHO-K1 cells stably expressing Kv1.3
- Assay type: cell-based
- Settings: CHO-K1 cells stably expressing Kv1.3; patch clamp, current inhibition; read-out: Kv1.3 IC50
pIC50: −log10 of the molar value.

Known results for compounds:
[[record]]
compound = "NCC1CN(c2cc(Cl)c(Cl)cc2O)C1 [Compound 31]"
experimental_system = "Kv1.3 potassium channel (Homo sapiens)"
reported = "> 6.00"

[[record]]
compound = "NC(=O)C1CCCN(c2c(O)ccc(Cl)c2Cl)C1 (stereo not shown) [Compound 88]"
experimental_system = "Kv1.3 potassium channel (Homo sapiens)"
reported = "> 5.00"

[[record]]
compound = "Oc1cc(C(F)(F)F)c(Cl)cc1C1CCNCC1 [Compound 29]"
experimental_system = "Kv1.3 potassium channel (Homo sapiens)"
reported = "> 5.00"

[[record]]
compound = "NC[C@@H]1CNCC[C@H]1c1cc(Cl)c(Cl)cc1O (relative stereo) [Compound 48]"
experimental_system = "Kv1.3 potassium channel (Homo sapiens)"
reported = "> 5.00"


Q: Report pIC50, nothing else, for this compound: NC(=O)[C@H]1C[C@@H](c2cc(Cl)c(Cl)cc2O)CCN1 (relative stereo) [Compound 85]
Ans: > 6.00

Q: Report pIC50, nothing else, for this compound: O=C(NC1CNC1)[C@@H]1CN[C@@H](c2c(O)ccc(Cl)c2Cl)C1 (single isomer, unassigned) [Compound 122]
Ans: > 6.00

Q: Report pIC50, nothing else, for this compound: O=C(NC1CNC1)C1CN[C@@H](c2c(O)ccc(Cl)c2Cl)C1 (single isomer, unassigned) [Compound 121]
Ans: > 6.00

Q: Report pIC50, nothing else, for this compound: CN1CCC(c2cc(Cl)c(Cl)cc2O)CC1 [Compound 4]
Ans: > 6.00

Q: Report pIC50, nothing else, for this compound: O=C(NC1CNC1)[C@@H]1CC[C@@H](c2c(O)ccc(Cl)c2Cl)N1 (single isomer, unassigned) [Compound 120]
Ans: > 5.00

Q: Report pIC50, nothing else, for this compound: OCC1(c2cc(Cl)c(Cl)cc2O)CCNCC1 [Compound 26]
Ans: > 5.00

---

- Experimental System: Kv1.3 potassium channel (Homo sapiens, UniProt P22001)
- Construct: expressed in transfected cells
- Method Summary: Kv1.3 potassium channel blocker activity, automated whole-cell patch clamp (Patchliner) in CHO-K1 cells stably expressing Kv1.3
- Assay type: cell-based
- Settings: CHO-K1 cells stably expressing Kv1.3; patch clamp, current inhibition; read-out: Kv1.3 IC50
pIC50: −log10 of the molar value.
Some molecules, each annotated with its measured pIC50.

Known results for molecules:
[[record]]
molecule = "Oc1cc(Cl)c(Cl)c(Cl)c1C1CCNCC1"
reported = "> 6.00"

[[record]]
molecule = "CC1(N)CCN(c2cc(Cl)c(Cl)cc2O)CC1"
reported = "> 6.00"

[[record]]
molecule = "Oc1cc(Cl)cc(Cl)c1C1CCNCC1"
reported = "> 6.00"


Q: Report pIC50, nothing else, for this molecule: Oc1cccc(Cl)c1C1CCNCC1
Ans: > 5.00

Q: Report pIC50, nothing else, for this molecule: NC(=O)[C@H]1CNCC[C@@H]1c1cc(Cl)c(Cl)cc1O (relative stereo)
Ans: > 5.00

---

- Experimental System: Kv1.3 potassium channel (Homo sapiens, UniProt P22001)
- Construct: expressed in transfected cells
- Method Summary: Kv1.3 potassium channel blocker activity, automated whole-cell patch clamp (Patchliner) in CHO-K1 cells stably expressing Kv1.3
- Format: cell-based
- Settings: CHO-K1 cells stably expressing Kv1.3; patch clamp, current inhibition; read-out: Kv1.3 IC50
pIC50: −log10 of the molar value.
Parameter Measured: pIC50

Known results for compounds:
[[record]]
compound = "Nc1nnc([C@@H]2C[C@H](c3c(O)ccc(Cl)c3Cl)CCN2)o1 (single isomer, unassigned)"
reported = "> 6.00"

[[record]]
compound = "Oc1cc(Cl)c(Cl)cc1C1CCNCC1n1ccnn1 (stereo not shown)"
reported = "> 5.00"

[[record]]
compound = "O=C(NC1CNC1)[C@H]1CN[C@H](c2c(O)ccc(Cl)c2Cl)C1 (single isomer, unassigned)"
reported = "> 6.00"

[[record]]
compound = "CC1(c2cc(Cl)c(Cl)cc2O)CCNCC1"
reported = "> 5.00"

[[record]]
compound = "O=C(NC1CNC1)[C@@H]1CN[C@H](c2c(O)ccc(Cl)c2Cl)C1 (single isomer, unassigned)"
reported = "> 5.00"


Q: Report pIC50, nothing else, for this compound: Cc1cc(O)c(C2CCNCC2)cc1Cl
Ans: > 5.00

Q: Report pIC50, nothing else, for this compound: Oc1cc(Cl)c(Cl)cc1C1CCNCC1
Ans: > 6.00

Q: Report pIC50, nothing else, for this compound: OCC1CC(c2cc(Cl)c(Cl)cc2O)CCN1 (stereo not shown)
Ans: > 5.00

Q: Report pIC50, nothing else, for this compound: O=C([C@H]1C[C@H](c2c(O)ccc(Cl)c2Cl)CCN1)N1CCOCC1 (relative stereo)
Ans: > 5.00

Q: Report pIC50, nothing else, for this compound: Oc1cc(Cl)c(Cl)cc1C1CCCCNC1 (stereo not shown)
Ans: > 5.00

Q: Report pIC50, nothing else, for this compound: Cc1ccc(O)c(C2CCNCC2)c1Cl
Ans: > 4.52

Q: Report pIC50, nothing else, for this compound: Oc1cc(Cl)c(Cl)cc1C1=CCCNC1
Ans: > 5.00

Q: Report pIC50, nothing else, for this compound: O=S(=O)(C1CCNC1)N1CCC(c2c(O)cc(Cl)c(Cl)c2Cl)CC1 (stereo not shown)
Ans: > 5.00
